For each entry below, report its IC50 value.
# Test target: recombinant human baculovirus-expressed cMET (Homo sapiens (Human), UniProt P08581)
# Method: c-MET kinase assay (HTRF KinEASE)
# Assay type: biochemical
# Condition set: average of two or more determinations; read-out: c-MET IC50

Any idea what IC50 was measured for CCn1cc(C(=O)Nc2ccc(Oc3cc(-c4cccc(C)n4)cn4nccc34)c(F)c2)c(=O)n(-c2ccc(F)cc2)c1=O [Example 136] ?
0.01 to 0.1 µM

Any idea what IC50 was measured for CCn1cc(C(=O)Nc2ccc(Oc3cc(-c4cncn4C)cn4nccc34)c(F)c2)c(=O)n(-c2ccc(F)cc2)c1=O [Example 100] ?
< 0.01 µM

Any idea what IC50 was measured for CCn1cc(C(=O)Nc2ccc(Oc3cc(NS(C)(=O)=O)cn4nccc34)c(F)c2)c(=O)n(-c2ccc(F)cc2)c1=O [Example 140] ?
0.01 to 0.1 µM

Any idea what IC50 was measured for O=C(Nc1ccc(Oc2cc(Nc3ccccn3)cn3nccc23)c(F)c1)c1cccn(-c2ccc(F)cc2)c1=O [Example 81] ?
< 0.01 µM

Any idea what IC50 was measured for CCn1cc(C(=O)Nc2ccc(Oc3cc(-c4cn(C)cn4)cn4nccc34)c(F)c2)c(=O)n(-c2ccc(F)cc2)c1=O [Example 93] ?
< 0.01 µM

Any idea what IC50 was measured for CCn1cc(C(=O)Nc2ccc(Oc3cc(NC(=O)N(C)C)cn4nccc34)c(F)c2)c(=O)n(-c2ccc(F)cc2)c1=O [Example 146] ?
< 0.01 µM

Any idea what IC50 was measured for CCn1cc(C(=O)Nc2ccc(Oc3cc(-c4cnsc4)cn4nccc34)c(F)c2)c(=O)n(-c2ccc(F)cc2)c1=O [Example 54] ?
< 0.01 µM

Any idea what IC50 was measured for CC(C)n1cc(C(=O)Nc2ccc(Oc3cc(NC(=O)N(C)C)cn4nccc34)c(F)c2)c(=O)n(-c2ccc(F)cc2)c1=O [Example 147] ?
< 0.01 µM

Any idea what IC50 was measured for CC(C)n1cc(C(=O)Nc2ccc(Oc3cc(Nc4ncccn4)cn4nccc34)c(F)c2)c(=O)n(-c2ccc(F)cc2)c1=O [Example 85] ?
< 0.01 µM

Any idea what IC50 was measured for CC(C)n1cc(C(=O)Nc2ccc(Oc3cc(-c4cnsc4)cn4nccc34)c(F)c2)c(=O)n(-c2ccc(F)cc2)c1=O [Example 55] ?
< 0.01 µM

Any idea what IC50 was measured for Cc1c(Nc2cc(Oc3ccc(NC(=O)c4cccn(-c5ccc(F)cc5)c4=O)cc3F)c3ccnn3c2)cnn1C [Example 82] ?
< 0.01 µM

* * *

# Test target: recombinant human baculovirus-expressed cMET (Homo sapiens (Human), UniProt P08581)
# Method: c-MET kinase assay (HTRF KinEASE)
# Format: biochemical
# Condition set: average of two or more determinations; read-out: c-MET IC50
For each entry below, report its IC50 value.

Any idea what IC50 was measured for Cn1cc(-c2cc(Oc3ccc(NC(=O)c4c[nH]c(=O)n(-c5ccc(F)cc5)c4=O)cc3F)c3ccnn3c2)cn1 ?
< 10 nM

Any idea what IC50 was measured for Cc1c(C(=O)Nc2ccc(Oc3cccn4nccc34)cc2)cnn1-c1ccc(F)cc1 ?
1000 to 10000 nM

Any idea what IC50 was measured for CC(C)n1cc(C(=O)Nc2ccc(Oc3cc(-c4cn(C)cn4)cn4nccc34)c(C(F)(F)F)c2)c(=O)n(-c2ccc(F)cc2)c1=O ?
10 to 100 nM

Any idea what IC50 was measured for CCOc1ccn(-c2ccc(F)cc2)c(=O)c1C(=O)Nc1ccc(Oc2cccn3nccc23)c(F)c1 ?
< 10 nM

* * *

# Test target: recombinant human baculovirus-expressed cMET (Homo sapiens (Human), UniProt P08581)
# Method: c-MET kinase assay (HTRF KinEASE)
# Assay type: biochemical
# Condition set: average of two or more determinations; read-out: c-MET IC50
pIC50: −log10 of the molar value.
Experimental endpoint: pIC50

Any idea what pIC50 was measured for CCn1cc(C(=O)Nc2ccc(Oc3cc(N4CCC(F)(F)C4)cn4nccc34)c(F)c2)c(=O)n(-c2ccc(F)cc2)c1=O ?
7.00 to 8.00

Any idea what pIC50 was measured for O=C(Nc1ccc(Oc2cc(-c3cn[nH]c3)cn3nccc23)c(F)c1)c1cccn(-c2ccc(F)cc2)c1=O ?
> 8.00

Any idea what pIC50 was measured for Cc1ccc(C(=O)Nc2ccc(Oc3cc(-c4cnco4)cn4nccc34)c(F)c2)c(=O)n1-c1ccc(F)cc1 ?
> 8.00

Any idea what pIC50 was measured for CC(C)n1cc(C(=O)Nc2ccc(Oc3cc(NS(C)(=O)=O)cn4nccc34)c(F)c2)c(=O)n(-c2ccc(F)cc2)c1=O ?
7.00 to 8.00

* * *

# Test target: recombinant human baculovirus-expressed cMET (Homo sapiens (Human))
# Method: c-MET kinase assay (HTRF KinEASE)
# Assay type: biochemical
# Condition set: average of two or more determinations; read-out: c-MET IC50
For each entry below, report its IC50 value.

Any idea what IC50 was measured for CCn1cc(C(=O)Nc2ccc(Oc3cc(Nc4ccccn4)cn4nccc34)c(F)c2)c(=O)n(-c2ccc(F)cc2)c1=O [Example 86] ?
10 to 100 nM

Any idea what IC50 was measured for CCOc1ccn(-c2ccc(F)cc2)c(=O)c1C(=O)Nc1ccc(Oc2cc(-c3cn(C)cn3)cn3nccc23)cc1 [Example 118] ?
< 10 nM

Any idea what IC50 was measured for CCn1cc(C(=O)Nc2ccc(Oc3cc(N4CCOCC4)cn4nccc34)c(F)c2)c(=O)n(-c2ccc(F)cc2)c1=O [Example 61] ?
< 10 nM

Any idea what IC50 was measured for O=C(Nc1ccc(Oc2cc(-c3cccnc3)cn3nccc23)c(F)c1)c1cccn(-c2ccc(F)cc2)c1=O [Example 25] ?
< 10 nM

Any idea what IC50 was measured for CCNc1ccn(-c2ccc(F)cc2)c(=O)c1C(=O)Nc1ccc(Oc2cccn3nccc23)c(F)c1 [Example 15] ?
10 to 100 nM

Any idea what IC50 was measured for CC(C)n1cc(C(=O)Nc2ccc(Oc3cc(-c4cn(C)cn4)cn4nccc34)cc2)c(=O)n(-c2ccc(F)cc2)c1=O [Example 114] ?
< 10 nM

Any idea what IC50 was measured for CC(C)n1cc(C(=O)Nc2ccc(Oc3cc(-c4cncs4)cn4nccc34)c(F)c2)c(=O)n(-c2ccc(F)cc2)c1=O [Example 103] ?
< 10 nM

* * *

# Test target: recombinant human baculovirus-expressed cMET (Homo sapiens (Human))
# Method: c-MET kinase assay (HTRF KinEASE)
# Type: biochemical
Experimental endpoint: IC50

Any idea what IC50 was measured for O=C(Nc1ccc(Oc2cccn3nccc23)c(F)c1)C1CCN(c2ccc(F)cc2)C1=O (stereo not shown) ?
10 to 100 nM

* * *

# Test target: recombinant human baculovirus-expressed cMET (Homo sapiens (Human))
# Method: c-MET kinase assay (HTRF KinEASE)
# Type: biochemical
# Condition set: average of two or more determinations; read-out: c-MET IC50
pIC50: −log10 of the molar value.
For each entry below, report its pIC50 value.

# query: pIC50 | item O=C(Nc1ccc(Oc2cc(-c3ccc(N4CCOCC4)nc3)cn3nccc23)c(F)c1)c1cccn(-c2ccc(F)cc2)c1=O | system: recombinant human baculovirus-expressed cMET (Homo sapiens (Human))
> 8.00

# query: pIC50 | item Cc1ccc(C(=O)Nc2ccc(Oc3cc(-c4ncco4)cn4nccc34)c(F)c2)c(=O)n1-c1ccc(F)cc1 | system: recombinant human baculovirus-expressed cMET (Homo sapiens (Human))
> 8.00

# query: pIC50 | item Cn1cnc(-c2cc(Oc3ccc(NC(=O)c4cn(C)c(=O)n(-c5ccc(F)cc5)c4=O)cc3F)c3ccnn3c2)c1 | system: recombinant human baculovirus-expressed cMET (Homo sapiens (Human))
> 8.00

# query: pIC50 | item CCn1nc(C(=O)Nc2ccc(Oc3cc(-c4cn(C)cn4)cn4nccc34)c(F)c2)c(=O)n(-c2ccc(F)cc2)c1=O | system: recombinant human baculovirus-expressed cMET (Homo sapiens (Human))
> 8.00

# query: pIC50 | item CCn1cc(C(=O)Nc2ccc(Oc3cc(-c4cn(C)cn4)cn4nccc34)c(O)c2)c(=O)n(-c2ccc(F)cc2)c1=O | system: recombinant human baculovirus-expressed cMET (Homo sapiens (Human))
7.00 to 8.00

# query: pIC50 | item Cc1nn(-c2ccccc2)c(C)c1C(=O)Nc1ccc(Oc2cccn3nccc23)cc1 | system: recombinant human baculovirus-expressed cMET (Homo sapiens (Human))
5.00 to 6.00

# query: pIC50 | item Cc1ccc(C(=O)Nc2ccc(Oc3cc(-c4cnn(C)c4)cn4nccc34)c(F)c2)c(=O)n1-c1ccc(F)cc1 | system: recombinant human baculovirus-expressed cMET (Homo sapiens (Human))
> 8.00

# query: pIC50 | item CCOCCn1cc(C(=O)Nc2ccc(Oc3cc(-c4cnn(C)c4)cn4nccc34)c(F)c2)c(=O)n(-c2ccc(F)cc2)c1=O | system: recombinant human baculovirus-expressed cMET (Homo sapiens (Human))
> 8.00

# query: pIC50 | item O=C(Nc1ccc(Oc2cc(Br)cn3nccc23)c(F)c1)c1cccn(-c2ccc(F)cc2)c1=O | system: recombinant human baculovirus-expressed cMET (Homo sapiens (Human))
> 8.00

# query: pIC50 | item Cn1cnc(-c2cc(Oc3ccc(Nc4ncccn4)cc3F)c3ccnn3c2)c1 | system: recombinant human baculovirus-expressed cMET (Homo sapiens (Human))
5.00 to 6.00

# query: pIC50 | item CC(C)n1cc(C(=O)Nc2ccc(Oc3cc(Nc4ccccn4)cn4nccc34)c(F)c2)c(=O)n(-c2ccc(F)cc2)c1=O | system: recombinant human baculovirus-expressed cMET (Homo sapiens (Human))
7.00 to 8.00

# query: pIC50 | item CC(C)n1cc(C(=O)Nc2ccc(Oc3cc(-c4cscn4)cn4nccc34)c(F)c2)c(=O)n(-c2ccc(F)cc2)c1=O | system: recombinant human baculovirus-expressed cMET (Homo sapiens (Human))
> 8.00

# query: pIC50 | item CCn1cc(C(=O)Nc2ccc(Oc3cc(Nc4ncccn4)cn4nccc34)c(F)c2)c(=O)n(-c2ccc(F)cc2)c1=O | system: recombinant human baculovirus-expressed cMET (Homo sapiens (Human))
7.00 to 8.00

# query: pIC50 | item O=C(Nc1ccc(Oc2cc(N3CCC(O)CC3)cn3nccc23)c(F)c1)c1cccn(-c2ccc(F)cc2)c1=O | system: recombinant human baculovirus-expressed cMET (Homo sapiens (Human))
> 8.00

# query: pIC50 | item Cc1ccc(C(=O)Nc2ccc(Oc3cc(Nc4ccc(F)cn4)cn4nccc34)c(F)c2)c(=O)n1-c1ccc(F)cc1 | system: recombinant human baculovirus-expressed cMET (Homo sapiens (Human))
> 8.00

# query: pIC50 | item Cn1cnc(-c2cc(Oc3ccc(NS(=O)(=O)c4ccc(F)cc4)cc3F)c3ccnn3c2)c1 | system: recombinant human baculovirus-expressed cMET (Homo sapiens (Human))
5.00 to 6.00

# query: pIC50 | item Cn1cnc(-c2cc(Oc3ccc(NC(=O)c4cn(CCOCc5ccccc5)c(=O)n(-c5ccc(F)cc5)c4=O)cc3F)c3ccnn3c2)c1 | system: recombinant human baculovirus-expressed cMET (Homo sapiens (Human))
7.00 to 8.00

# query: pIC50 | item Cn1cc(-c2cc(Oc3ccc(NC(=O)c4cccn(-c5ccc(F)cc5)c4=O)cn3)c3ccnn3c2)cn1 | system: recombinant human baculovirus-expressed cMET (Homo sapiens (Human))
> 8.00

# query: pIC50 | item O=C(Nc1ccc(Oc2cccn3nccc23)c(F)c1)c1cccn(Cc2ccc(F)cc2)c1=O | system: recombinant human baculovirus-expressed cMET (Homo sapiens (Human))
6.00 to 7.00

# query: pIC50 | item COC(=O)Nc1cc(Oc2ccc(NC(=O)c3cn(C(C)C)c(=O)n(-c4ccc(F)cc4)c3=O)cc2F)c2ccnn2c1 | system: recombinant human baculovirus-expressed cMET (Homo sapiens (Human))
7.00 to 8.00
